Sourced from ChEMBL document CHEMBL3988442

Entries and their Percent Effect values follow.
# measurement description: In vitro enzyme assay to detect hydrolysis of chlorophenol red-beta-D-[…] directly proportional to the number of Toxoplasma stably expressing beta-galactosidase
# Format: functional, organism-based, Toxoplasma gondii
# Design: scale not given: in the data most compounds retested in dose-response had high values
# details: 10 µM
Out of some 85,000 compounds screened, about 440 (0.52%) showed an effect of 50% or more. The sample as a whole holds a higher share of strong results than the screen did.
Please give a number only; it is taken to be in %.

O=C(c1ccc(-c2ccc(O)nc2)s1)N1CCSCC1 ... 61.48
c1ccc(C2=NOC3(CCN(Cc4c[nH]c5ccccc45)CC3)C2)cc1 ... 73.52
COc1ccc(F)c(CN(CCCn2ccnc2)Cc2ccc(C)s2)c1.O=C(O)CC(O)(CC(=O)O)C(=O)O ... 53.53
Cc1ccc(CN(CCCn2ccnc2)Cc2c[nH]cn2)s1.O=C(O)CC(O)(CC(=O)O)C(=O)O ... 27.23
CCc1ccc(CN(CCCn2ccnc2)Cc2ccc(C)s2)o1.O=C(O)CC(O)(CC(=O)O)C(=O)O ... 5.317
CCS(=O)(=O)N1CCC2(CC1)CN(c1cccnc1)C(=O)CO2.O=C(O)C(F)(F)F ... -35.87
Cc1cc(-c2nc(-c3cccc(CN4CCOCC4)c3)no2)no1 ... 8.772
COc1ccc(C(C)N(C)Cc2c(C(C)C)[nH]c3ncccc23)cc1 (stereo unspecified) ... -0.3537

Q) Requested read-out: Percent Effect. Entry: `O=C(c1ccc(-c2ccc(O)nc2)s1)N1CCCCC1`
A) 53

Q) Would you kindly repeat that for `C1Cc2nc(CCNc3nc(C4CC4)nc4c3CCNCC4)sc2C1` ?
A) 77.67

Q) Please give the result for `Cc1ccc(O)c(CN(CCCn2ccnc2)Cc2ccc(C)s2)c1.O=C(O)CC(O)(CC(=O)O)C(=O)O` too.
A) 4.169

Q) What about this molecule? `Cc1ccc(CN(CCCn2ccnc2)Cc2cnn(C)c2)s1.O=C(O)CC(O)(CC(=O)O)C(=O)O`
A) -58.36

Q) Param item: `Cc1ccc(CN(CCCn2ccnc2)Cc2ccccc2O)s1.O=C(O)CC(O)(CC(=O)O)C(=O)O`
A) -8.716

Q) Queued: `Cc1ccc(CN(CCCn2ccnc2)Cc2c(F)cccc2F)s1.O=C(O)CC(O)(CC(=O)O)C(=O)O`
A) 36.95

Q) What do we get for CC(Cc1ccco1)NS(=O)(=O)N1CCCCCC1 (stereo unspecified) ?
A) -1.07

----------
# measurement description: In vitro enzyme assay to detect hydrolysis of chlorophenol red-beta-D-[…] directly proportional to the number of Toxoplasma stably expressing beta-galactosidase
# Format: functional, organism-based, Toxoplasma gondii
# Set-up: scale not given: in the data most compounds retested in dose-response had high values
# details: 10 µM
The campaign covered roughly 85,000 compounds. About 440 (0.52%) showed an effect of 50% or more. The entries come from a sample that favours strong results as a whole.
recorded metric: Percent Effect (%)
Just the number please, in %, no unit attached.

Here are 8 compounds together with their reported answers.
O=C(Nc1nccs1)c1csc(NC2CCCC2)n1 ... 94.63
Cl.NC1CCc2nc(-c3cccnc3)nc(Nc3ccc(F)cc3)c2C1 (centres undefined) ... 24.29
Cc1[nH]/c(=N\C(=O)c2csc(NCC(C)C)n2)sc1C ... 92.95
CCN1CC2(CC1=O)CN(Cc1cccs1)CCN(C(=O)C(C)C)C2 (centres undefined) ... -4.777
CC(C)(C)c1cn2c(n1)C(CNCc1cnn3ccccc13)CCC2 (centres undefined) ... 84.08
N#Cc1ccc(CN2CCNC(=O)C2c2cccs2)cc1 (centres undefined) ... 7.265
CCN1CC2(CC1=O)CN(Cc1ccncc1)CCN(C(=O)C(C)C)C2.O=C(O)C(F)(F)F.O=C(O)C(F)(F)F (centres undefined) ... 78.24
Cc1[nH]/c(=N\C(=O)c2csc(NC3CCCC3)n2)sc1C ... 89.34

Q) May I ask what Percent Effect has been recorded for `CC(C)n1nc2c(cc1=O)CN(c1ncnc3ccccc13)CC2` ?
A) -24.89

Q) Okay, and `CCn1nc2c(cc1=O)CN(c1ncnc3ccsc13)CC2` ?
A) 76.59

Q) Check `Cn1nc2c(cc1=O)CN(c1nc3ccccc3s1)CC2` too.
A) -0.5196

Q) Same question, Cc1cn2c(n1)C(CNCC1=Cc3ccccc3OC1)CCC2 (centres undefined) this time
A) -4.432

Q) Cool, now Cc1cn2c(n1)C(CNCc1cccc3c1OCO3)CCC2 (centres undefined)
A) 1.818

Q) Note, next up: `CCS(=O)(=O)CCNC1CCN(c2nc3ccc(Cl)cc3s2)CC1`
A) 6.923

Q) Param item: `CCc1nccn1CCNC1CCN(c2nc3ccc(Cl)cc3s2)CC1`
A) 59.54

Q) Moving on to Cc1cn2c(n1)C(CNCc1cnn3ccccc13)CCC2 (centres undefined)
A) -1.725

----------
# measurement description: In vitro enzyme assay to detect hydrolysis of chlorophenol red-beta-D-[…] directly proportional to the number of Toxoplasma stably expressing beta-galactosidase
# Type: functional, organism-based, Toxoplasma gondii
# Set-up: scale not given: in the data most compounds retested in dose-response had high values
# details: 10 µM
Screen size: about 85,000 compounds; about 440 (0.52%) showed an effect of 50% or more. This is one part of a sample in which strong results are shown more often than they occur.
recorded metric: Percent Effect (%)
Answer with a number only, understood to be in %.

Take a look at these entries with their results.
Cc1c(S(=O)(=O)N2CCOCC2)cc2c(C)cc(=O)n3c2c1CCC3 ... 70.37
CCN(CC)S(=O)(=O)c1cc2c3c(c1)c(C)cc(=O)n3CCC2 ... 17.21
Cc1nc2cc(C3CCN(Cc4cccc(F)c4F)C3)nn2c(O)c1C.O=C(O)CC(O)(CC(=O)O)C(=O)O (stereo unspecified) ... 49.65

Q) Which Percent Effect is listed for `O=C1COc2ccc(S(=O)(=O)N3CCOCC3)c3c2N1CCC3` ?
A) -24.36

Q) # iterate: `Cc1c(S(=O)(=O)NC2CC2)cc2c(C)cc(=O)n3c2c1CCC3`
A) 69.29

Q) Please do the same for `Cc1cc(=O)n2c3c(cc(S(=O)(=O)NC4CC4)cc13)CCC2` as well.
A) 88.28

Q) Try this compound next: `CCN1C[C@H]2CCN(C(C)=O)CC[C@H]2S1(=O)=O`
A) -1.674

Q) Record: `Cn1cnc2c1CCN(Cc1cccc(C(N)=O)c1)C2`
A) 1.729

Q) Further, for `NC(=O)c1cccc(CN2CCc3c(ncn3C3CC3)C2)c1` ?
A) 83.44

Q) // repeat for `Cc1ccc(-c2cc(CNc3ncnc4c3CCNCC4)no2)cc1` and report
A) 59.71

Q) Would you kindly repeat that for `Cc1cc2[nH]c(=O)c(=O)[nH]c2cc1S(=O)(=O)NC1CCCCC1` ?
A) 9.258

----------
# measurement description: In vitro enzyme assay to detect hydrolysis of chlorophenol red-beta-D-[…] directly proportional to the number of Toxoplasma stably expressing beta-galactosidase
# Type: functional, organism-based, Toxoplasma gondii
# Design: scale not given: in the data most compounds retested in dose-response had high values
# details: 50 µM
The whole screen tested about 85,000 compounds, of which about 440 (0.52%) showed an effect of 50% or more. The entries come from a sample that favours strong results as a whole.
recorded metric: Percent Effect (%)
Entry rule: numbers only, all in %.

Recorded results for 3 molecules are shown here.
CC(C)CCC(=O)N1CCC(C)(CO)C1 (stereo not drawn) ... 58.28
O=S(=O)(NC1CC1)C1CCN(CCc2ccccn2)C1 (stereo not drawn) ... 5.549
CSCCC(=O)NC(C1CCNCC1)[C@H]1C[C@H](O)C1 (stereo partly drawn) ... 2.303

Q) For the molecule `CC(=O)N1CCN(C(=O)CCC(C)C)CC1` , what Percent Effect is on record?
A) -13.31

Q) Same question for O=C(NCC(O)C1CCCCC1)[C@@H](O)c1ccccc1 (stereo partly drawn) please.
A) -2.815

Q) Now this one: `C=C(Br)CN1CCN(CCNC(=O)C2CCC2)CC1`
A) -27.84

Q) Also `CC1(C)CCN(C(=O)Nc2ccsc2)CCS1(=O)=O` , if possible.
A) 14.26

Q) Now this one: `CN(Cc1cccnc1)C(=O)c1cccc(Cl)c1`
A) 11.97

Q) And `CN(C)S(=O)(=O)N1CC(=O)NCC1(C)C` ?
A) 14.19

Q) Request: Cc1n[nH]c(C)c1C(NC(N)=O)c1ccccc1 (stereo not drawn)
A) 2.289

Q) What would you report for CSCC(=O)NC(C1CCNCC1)[C@H]1C[C@@H](O)C1 (stereo partly drawn) ?
A) 54.38

Q) What do you get for CCC(OC)C(=O)N1CC(Oc2ccccc2F)C1 (stereo not drawn) ?
A) -7.864

Q) What do you get for COc1ccnc(N2CCC(F)(CO)C2)n1 (stereo not drawn) ?
A) 3.064
